- target: 2D6 (Homo sapiens, UniProt P10635)
- Sequence (P10635 whole entry): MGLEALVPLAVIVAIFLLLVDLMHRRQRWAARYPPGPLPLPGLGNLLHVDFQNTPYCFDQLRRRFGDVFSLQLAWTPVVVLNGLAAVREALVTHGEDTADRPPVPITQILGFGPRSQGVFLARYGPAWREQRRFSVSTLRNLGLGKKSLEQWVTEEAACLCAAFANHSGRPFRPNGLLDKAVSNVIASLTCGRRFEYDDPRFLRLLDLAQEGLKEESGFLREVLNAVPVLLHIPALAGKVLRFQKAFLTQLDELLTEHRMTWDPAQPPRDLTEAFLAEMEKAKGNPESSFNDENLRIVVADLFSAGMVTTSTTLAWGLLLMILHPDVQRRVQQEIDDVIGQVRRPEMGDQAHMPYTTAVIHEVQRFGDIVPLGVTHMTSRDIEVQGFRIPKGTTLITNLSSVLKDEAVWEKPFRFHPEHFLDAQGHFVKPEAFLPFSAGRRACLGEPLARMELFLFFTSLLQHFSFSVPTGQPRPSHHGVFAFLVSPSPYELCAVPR
- protocolDetails: Cyp inhibition 2D6
- Type: in vitro ADME
- cond: read-out: Cyps: 2D6
pIC50: −log10 of the molar value.
parameter: pIC50

Asked: Need pIC50 of "CC1(C(=O)N2CCC(O)(Cn3cnc4c(cc(Cl)n4-c4ccc5c(c4)CCO5)c3=O)CC2)CC1" , thanks.
Given back: < 4.70

----------
- target: 1A2 (Homo sapiens, UniProt P05177)
- Sequence (P05177 whole entry): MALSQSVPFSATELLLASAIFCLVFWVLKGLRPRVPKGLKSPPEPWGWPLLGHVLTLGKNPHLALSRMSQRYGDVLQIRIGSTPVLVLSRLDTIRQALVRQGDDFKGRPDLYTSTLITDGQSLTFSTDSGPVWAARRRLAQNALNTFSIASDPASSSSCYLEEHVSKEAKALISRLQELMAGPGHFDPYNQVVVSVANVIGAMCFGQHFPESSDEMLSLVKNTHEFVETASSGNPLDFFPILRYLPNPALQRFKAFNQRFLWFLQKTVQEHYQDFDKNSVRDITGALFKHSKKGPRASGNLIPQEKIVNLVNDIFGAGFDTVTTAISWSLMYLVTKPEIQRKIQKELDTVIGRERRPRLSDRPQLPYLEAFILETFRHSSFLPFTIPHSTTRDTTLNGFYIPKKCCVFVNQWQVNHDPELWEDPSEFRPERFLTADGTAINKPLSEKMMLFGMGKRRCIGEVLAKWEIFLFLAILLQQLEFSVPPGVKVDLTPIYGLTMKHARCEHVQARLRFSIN
pIC50: −log10 of the molar value.
parameter: pIC50

Asked: # returns recorded pIC50 (system: 1A2 (Homo sapiens, UniProt P05177)) for "CC1(C(=O)N2CCC(O)(Cn3cnc4c(cc(Cl)n4-c4ccc5c(c4)CCO5)c3=O)CC2)CC1"
Given back: < 4.70

----------
- protocolDetails: PPB Fu (r)
- Type: in vitro ADME
- cond: rat, plasma
parameter: fraction unbound
I'd appreciate a reply containing only the number, no unit.

Asked: Need fraction unbound of "CC1(C(=O)N2CCC(O)(Cn3cnc4c(cc(Cl)n4-c4ccc5c(c4)CCO5)c3=O)CC2)CC1" , thanks.
Given back: 0.12

----------
- protocolDetails: MDCK permeability
- Format: in vitro ADME
- cond: dog, MDCK; read-out: MDCK Papp ratio
parameter: efflux ratio

Asked: Need efflux ratio of CC1(C(=O)N2CCC(O)(Cn3cnc4c(cc(Cl)n4-c4ccc5c(c4)CCO5)c3=O)CC2)CC1 [ADC-159] , thanks.
Given back: 276

----------
- target: UniProt P08684
pIC50: −log10 of the molar value.
parameter: pIC50

Asked: Need pIC50 of "CC1(C(=O)N2CCC(O)(Cn3cnc4c(cc(Cl)n4-c4ccc5c(c4)CCO5)c3=O)CC2)CC1" , thanks.
Given back: < 4.70

----------
- target: 2C19 (Homo sapiens, UniProt P33261)
- Sequence (P33261 whole entry): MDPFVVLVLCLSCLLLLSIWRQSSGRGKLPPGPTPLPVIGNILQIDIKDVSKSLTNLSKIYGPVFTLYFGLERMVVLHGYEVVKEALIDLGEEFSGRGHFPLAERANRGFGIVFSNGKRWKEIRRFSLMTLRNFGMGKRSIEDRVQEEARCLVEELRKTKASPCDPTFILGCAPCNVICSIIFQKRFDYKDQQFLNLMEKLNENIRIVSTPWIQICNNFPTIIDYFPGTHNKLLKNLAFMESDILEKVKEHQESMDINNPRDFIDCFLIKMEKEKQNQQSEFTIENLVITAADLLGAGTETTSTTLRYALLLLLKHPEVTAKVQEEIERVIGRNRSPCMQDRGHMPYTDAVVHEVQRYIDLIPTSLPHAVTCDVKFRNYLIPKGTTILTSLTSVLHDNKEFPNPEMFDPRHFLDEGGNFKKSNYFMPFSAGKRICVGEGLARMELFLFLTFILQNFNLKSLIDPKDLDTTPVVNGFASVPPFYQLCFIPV
pIC50: −log10 of the molar value.
parameter: pIC50

Asked: Need pIC50 of CC1(C(=O)N2CCC(O)(Cn3cnc4c(cc(Cl)n4-c4ccc5c(c4)CCO5)c3=O)CC2)CC1 [ADC-159] , thanks.
Given back: < 4.70

----------
- target: CYP3A4 (Homo sapiens, UniProt P08684)
- Sequence (P08684 whole entry): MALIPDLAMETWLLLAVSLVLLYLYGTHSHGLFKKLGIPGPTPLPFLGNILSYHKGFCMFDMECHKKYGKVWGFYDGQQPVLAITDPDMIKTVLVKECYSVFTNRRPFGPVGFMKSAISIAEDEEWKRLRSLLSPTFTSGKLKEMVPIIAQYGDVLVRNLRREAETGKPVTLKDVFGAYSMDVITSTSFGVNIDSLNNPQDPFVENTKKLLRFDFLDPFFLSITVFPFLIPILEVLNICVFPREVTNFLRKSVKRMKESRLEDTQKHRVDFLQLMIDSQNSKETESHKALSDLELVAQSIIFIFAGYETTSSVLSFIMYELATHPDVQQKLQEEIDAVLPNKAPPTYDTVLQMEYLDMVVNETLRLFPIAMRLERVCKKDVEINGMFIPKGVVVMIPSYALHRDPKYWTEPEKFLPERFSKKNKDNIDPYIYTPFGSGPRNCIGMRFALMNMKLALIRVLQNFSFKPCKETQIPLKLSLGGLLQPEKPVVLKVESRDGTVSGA
pIC50: −log10 of the molar value.
parameter: pIC50

Asked: # returns recorded pIC50 (system: CYP3A4 (Homo sapiens, UniProt P08684)) for "CC1(C(=O)N2CCC(O)(Cn3cnc4c(cc(Cl)n4-c4ccc5c(c4)CCO5)c3=O)CC2)CC1"
Given back: < 4.70
